Readings of Kd for the listed binders
TESTED ON: SHP-1 C453S catalytic domain (residues 243–530) (human, UniProt P29350 243-530, C453S)
Sequence (P29350 243-530 C453S): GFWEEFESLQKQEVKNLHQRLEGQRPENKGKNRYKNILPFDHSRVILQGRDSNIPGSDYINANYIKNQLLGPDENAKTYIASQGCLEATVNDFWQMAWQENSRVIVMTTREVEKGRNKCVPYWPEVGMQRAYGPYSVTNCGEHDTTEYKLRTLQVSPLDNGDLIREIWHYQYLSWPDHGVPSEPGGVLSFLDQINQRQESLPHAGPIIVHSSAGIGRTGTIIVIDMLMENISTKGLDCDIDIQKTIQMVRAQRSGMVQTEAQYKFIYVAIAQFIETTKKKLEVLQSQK
TEST NAME: ITC
Square brackets hold non-standard residues; d marks the D form. Ends that are not written are not given here. pY = N[C@@H](Cc1ccc(OP(=O)(O)O)cc1)C(=O)O
ENDPOINT LABEL: Kd (µM)

[[record]]
binder = "ETDKEY[pY]TVKD [JAK1 activation loop phosphopeptide E1029TDKEYpYTVKD]"
endpoint_label = "Kd"
numeric_readout = 5.6

[[record]]
binder = "ETDKE[pY]YTVKD [JAK1 activation loop phosphopeptide E1029TDKEpYYTVKD]"
endpoint_label = "Kd"
numeric_readout = 13.7

